Catalogue of zone of inhibition at 200 µg/mL values
system: Staphylococcus aureus; assay: Antibacterial activity against Staphylococcus aureus at 200 ug/ml after 24 hrs by disc diffusion method; format: functional; conditions: read-out: IZ
# value in mm; strip the unit string

Use these answered entries as a reference point.
compound="CC(C)Cn1ncn(-c2nc3c(s2)C(C)Sc2sccc2-3)c1=O (centres undefined)" quantity_measured="zone of inhibition at 200 µg/mL" unit_descriptor=mm readout_value=15
compound=CCn1ncn(-c2nc(-c3ccsc3)cs2)c1=O quantity_measured="zone of inhibition at 200 µg/mL" unit_descriptor=mm readout_value=32

Query: Give zone of inhibition at 200 µg/mL for O=C(N[C@H](CO)[C@H](O)c1ccc([N+](=O)[O-])cc1)C(Cl)Cl [CHLORAMPHENICOL]
Result: 39

Query: Give zone of inhibition at 200 µg/mL for Cn1ncn(-c2nc(-c3ccsc3)cs2)c1=O
Result: 35
